Cited source for all entries: the supplement of paper PMC6555819

# System: PXR:RXRa (NR concentration 270 nM, RXRa partner concentration 90 nM)
# Assay Summary: PBM binding z-score (relative to random genomic background probes); higher = stronger binding; sequences stand for … in GC…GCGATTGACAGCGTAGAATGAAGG
Measurement Label: PBM binding z-score
Please respond with just the number, no unit label.

{"Sequence Input": "CAAACTTGGTCACAGAGGTCAAAGTCCGTGCGTA", "PBM binding z-score": 6.07}

Look at this sequence and give its reported PBM binding z-score. "CTACCAACGTGAACAAGGTCGTTGATTACTATTC"
1.72

Can you check "ATCGATAGGTCGAGGTGAGTATAGAGAAAGGGAA" next?
0.415

Please give the result for "TCTTGTAGATCAAGCAGGTTGAGAAAGCCTGAGT" too.
0.124

----------
Measured PBM binding z-score of individual entries
# System: RXRa homodimer (NR concentration 180 nM)
# Assay Summary: PBM binding z-score (relative to random genomic background probes); higher = stronger binding; sequences stand for … in GC…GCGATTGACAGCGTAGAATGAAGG
// keep it numeric: no unit symbol after the value

Example sequences with recorded PBM binding z-score:
{"Sequence Input": "ACTAGCAGGCCAAGTTTGGGTTACTCAAACAAAG", "PBM binding z-score": -0.21}
{"Sequence Input": "GCTCGTAGATCAAGGTTAAGAAAGACTAAGCTAA", "PBM binding z-score": 0.709}
{"Sequence Input": "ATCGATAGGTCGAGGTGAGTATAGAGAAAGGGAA", "PBM binding z-score": 1.47}
{"Sequence Input": "AGTCCAAGTTCAGGACGAGGTAACGTAAAGCACG", "PBM binding z-score": 1.3}
{"Sequence Input": "CCTCGGAGGACAACAGGAGGTTAGAGCTGCCAGA", "PBM binding z-score": -0.0815}

Need PBM binding z-score of "TGAATGAGGTTGTAAGATCAGGGAACGTTGCAAA" , thanks.
0.396

Now give it for "CCTAGCAGGCCAATCTGGGTCAGTCAAGGCTTGA" too.
-0.197

Now this one: "ATCTCTAGGTAAAGATATTTCAGTGAATGCAAAT"
0.125

Can you check "TCTTGTAGATCAACAGGAGGTTAAGAAAGATCGA" next?
0.762

Would you mind doing "CGGAGTAGGTTATGGGGCATTCAGGCAACGGTGA" as well?
0.668

Can you check "CGTCCAAGGTCAGCAGGACAGTGAAAGCGACGTG" next?
3.68

Same thing, different sequence: "AGTCAAAGTTCAGGACGAGGAAACGTAAAGCACG"
3.17

Please give the result for "ACTAGTTGGTCAGCTGAGGTCACTCACAATTCGG" too.
3.13

Another sequence: "GATACAGGGTCAGCTAGACGCCAGAGTATGGAAA"
4.21

Would you kindly repeat that for "ATCTCTAGGTATAGTTCAGTGAAAGATCGATAGA" ?
0.686

----------
PBM binding z-score listing for selected sequences.
# Test system: RARa homodimer (NR concentration 270 nM)
# Assay Summary: PBM binding z-score (relative to random genomic background probes); higher = stronger binding; sequences stand for … in GC…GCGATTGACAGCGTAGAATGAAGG

{"Sequence Input": "TCATATAGGTAAATTCTAGGTGAAAGTCCGATCT", "PBM binding z-score": 1.61}
{"Sequence Input": "GCTAGCAGGCCATTCGGGTCACTCAATGACGGGC", "PBM binding z-score": -0.872}
{"Sequence Input": "TCTTGTAGCTCAACAGGAGGTTAAGAAAGATCGA", "PBM binding z-score": -0.715}

So what's the measured PBM binding z-score for this one? "CCGACTGGGGCAGAAAGGTTACCCTACCATCCGG"
-0.533

Proceed to "GCTCGGAGGACAAGGTCGGAGCTTTGTCCGTAGA"
-1.12

And then "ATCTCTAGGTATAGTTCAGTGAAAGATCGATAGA" , what is it?
1.34

Same for "CTTATTAGTTGACCATAAGGGCAACCGAAGCTCG"
1.3
